- System: MS2 coat protein
- TEST_PROTOCOL: apparent KD of MS2 coat protein; higher = weaker reporter binding
- PROTOCOL_CONDITIONS: Eterna round: R107; input ligand: arginine 13.2 mM
REPORTED_METRIC: apparent KD of MS2 coat protein (nM)
Answers are plain numbers, in nM.

Consider the following illustrative entries.
ACAUUGCGCUCGGCCGCCACUGCCUUAUGAUUAUAAGGAUUAAUGAACAUGAGGAUCACCCAUGUCAGGACCGGGAGCGAACCAU [SSTryp B #6]
11.4
GUCCUCAUGACGGCCGCCACUACACAUGAGGAUCACCCAUGUAAUGAUCCCUUAAAUGAUAAUAGUAGGACCGGGUCACUGUAAG [Same State Typptophan B GF12]
119

Report apparent KD of MS2 coat protein for GGUAUGUAUUCGGAAACGAAUGCAUACCAUCGAGGACCGGUACGGCCGCCACUCGUGGCUGAUCAACAUGAGGAUCACCCAUGUA [Ex Tryptophan A 1] tested on MS2 coat protein.
36.1
